1 h separation, amount values, listed per item
Procedure Summary: Emulsion stability testing of nonionic emulsifiers, Hallcomid solvent series
Assay type: physicochemical
Condition Summary: 2,4-D diester 480 g/L in Hallcomid M-8-10, 1000 ppm water
Method: Nonionic samples contain a low amount of water (<1%) and are prepared as emulsifiable concentrates with three pesticides using two different solvent systems. In the aromatic solvent series, the nonionic sample replaces Toximul® 8240 (castor oil ethoxylate, 36 POE, Stepan), and in the Hallcomid™ (N,N-dimethylcaprylamide/N,N-dimethylcapramide, Stepan) solvent series, the nonionic sample replaces Ninex® MT-630F. Hallcomid Solvent Series. […]
Reported Endpoint: 1 h separation, amount (mL)

1. CCC=CCCCCCCCCOCCOCCOCCOCCOCCOCCOCCO (mixture of isomers)
5.2
2. C=CCCCCCCCCOCCOCCOCCOCCOCCOCCOCCO
5
3. C=CCCCCCCCCOCCOCCOCCOCCOCCO
6
4. CCC=CCCCCCCCCOCCO (mixture of isomers)
6.9
5. C=CCCCCCCCCOCCOCCOCCOCCOCCOCCOCCOCCOCCOCCOCCOCCOCCOCCOCCO
4.8
6. C=CCCCCCCCCOCCO
6.5
7. CCC=CCCCCCCCCOCCOCCOCCOCCOCCO (mixture of isomers)
6.8
8. C=CCCCCCCCCOCCOCCOCCO
6
9. CCC=CCCCCCCCCOCCOCCOCCO (mixture of isomers)
6.7
10. CCC=CCCCCCCCCOCCOCCOCCOCCOCCOCCOCCOCCOCCOCCOCCOCCOCCOCCOCCO (mixture of isomers)
4

====

Procedure Summary: Emulsion stability testing of nonionic emulsifiers, Hallcomid solvent series
Type: physicochemical
Condition Summary: 2,4-D diester 480 g/L in Hallcomid M-8-10, 1000 ppm water
Reported Endpoint: 24 h separation, amount (mL)

1) C=CCCCCCCCCOCCO
8
2) CCC=CCCCCCCCCOCCOCCOCCOCCOCCOCCOCCO (mixture of isomers)
9
3) C=CCCCCCCCCOCCOCCOCCOCCOCCOCCOCCO
7.8
4) CCC=CCCCCCCCCOCCO (mixture of isomers)
8.6
5) CCC=CCCCCCCCCOCCOCCOCCOCCOCCOCCOCCOCCOCCOCCOCCOCCOCCOCCOCCO (mixture of isomers)
7
6) CCC=CCCCCCCCCOCCOCCOCCO (mixture of isomers)
8.2
7) C=CCCCCCCCCOCCOCCOCCOCCOCCOCCOCCOCCOCCOCCOCCOCCOCCOCCOCCO
7.6
8) C=CCCCCCCCCOCCOCCOCCO
7.5
9) C=CCCCCCCCCOCCOCCOCCOCCOCCO
8
10) CCC=CCCCCCCCCOCCOCCOCCOCCOCCO (mixture of isomers)
8.7

====

Procedure Summary: Emulsion stability testing of nonionic emulsifiers, Hallcomid solvent series
Assay type: physicochemical
Design: key: C = creamy; CO = creamy oil; O = oil; GC = gritty cream; NS = no separation; OC = oily cream
Condition Summary: Bifenthrin 240 g/L in Hallcomid M-8-10, 1000 ppm water
Reported Endpoint: 1 h separation, appearance

1. CCC=CCCCCCCCCOCCOCCOCCOCCOCCO (mixture of isomers)
O
2. CCC=CCCCCCCCCOCCO (mixture of isomers)
C
3. C=CCCCCCCCCOCCOCCOCCO
CO
4. C=CCCCCCCCCOCCOCCOCCOCCOCCO
CO
5. C=CCCCCCCCCOCCOCCOCCOCCOCCOCCOCCOCCOCCOCCOCCOCCOCCOCCOCCO
CO
